Taken from ChEMBL document CHEMBL1158550.

Target: Exportin-1 (Homo sapiens) (UniProt O14980)
Sequence (O14980 whole entry): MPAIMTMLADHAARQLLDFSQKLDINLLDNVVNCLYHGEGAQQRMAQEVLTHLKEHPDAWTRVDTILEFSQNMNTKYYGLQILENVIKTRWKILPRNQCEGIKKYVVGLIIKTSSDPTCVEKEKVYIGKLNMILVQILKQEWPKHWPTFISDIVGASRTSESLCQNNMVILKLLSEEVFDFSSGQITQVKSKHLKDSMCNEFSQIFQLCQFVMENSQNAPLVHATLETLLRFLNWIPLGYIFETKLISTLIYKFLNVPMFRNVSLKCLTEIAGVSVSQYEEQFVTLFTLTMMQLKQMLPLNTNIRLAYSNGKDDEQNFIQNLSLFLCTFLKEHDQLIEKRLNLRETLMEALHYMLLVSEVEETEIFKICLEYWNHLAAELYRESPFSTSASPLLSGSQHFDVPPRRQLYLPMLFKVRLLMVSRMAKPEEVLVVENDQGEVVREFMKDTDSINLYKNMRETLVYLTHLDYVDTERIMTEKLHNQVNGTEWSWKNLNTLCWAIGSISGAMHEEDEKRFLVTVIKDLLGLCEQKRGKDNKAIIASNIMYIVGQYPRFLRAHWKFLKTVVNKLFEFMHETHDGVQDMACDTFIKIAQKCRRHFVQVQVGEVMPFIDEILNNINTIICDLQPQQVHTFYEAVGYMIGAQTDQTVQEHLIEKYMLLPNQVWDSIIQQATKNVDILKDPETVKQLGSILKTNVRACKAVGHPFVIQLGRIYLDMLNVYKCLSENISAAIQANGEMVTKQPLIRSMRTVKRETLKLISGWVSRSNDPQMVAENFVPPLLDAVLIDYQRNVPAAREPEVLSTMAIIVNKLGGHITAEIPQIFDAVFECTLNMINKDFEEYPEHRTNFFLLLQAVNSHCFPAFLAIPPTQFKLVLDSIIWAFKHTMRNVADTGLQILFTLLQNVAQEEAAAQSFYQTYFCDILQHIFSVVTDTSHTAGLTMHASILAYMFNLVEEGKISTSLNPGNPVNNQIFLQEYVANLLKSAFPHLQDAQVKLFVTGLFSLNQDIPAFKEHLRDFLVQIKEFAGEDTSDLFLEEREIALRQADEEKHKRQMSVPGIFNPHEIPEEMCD
Assay: Inhibition of CRM1-mediated nuclear export of Rio2 in human HeLa cells at 2 uM
Type: cell-based
Active and inactive are the calls of the source. No cut-off for these calls is given here.
Reported property: inhibition

> print(dat)
                            smiles.repr                             system.tested  obs.value
1     O=C1C=CC[C@H](C#C/C=C/c2ccccc2)O1  Exportin-1 (Homo sapiens) (UniProt O14980)   inactive
2             O=C1C=CC[C@H](c2ccccc2)O1  Exportin-1 (Homo sapiens) (UniProt O14980)   inactive
3            O=C1C=CC[C@H](Cc2ccccc2)O1  Exportin-1 (Homo sapiens) (UniProt O14980)   inactive
4  O=C1C=CC[C@H](c2ccc(-c3ccccc3)cc2)O1  Exportin-1 (Homo sapiens) (UniProt O14980)   inactive
